- Test system: Human prostate cancer (PC3)
- experiment-description: In vitro antitumor MTT assay, PC3
- Format: cell-based
- conditions-used: Homo sapiens, read-out: In vitro cytotoxicity IC50 PC3
endpoint-label: IC50 (µM)
All answers are understood in µM, so give the number only.

# input Look up IC50: `C/C(=N\N=C\c1cccc(Cl)c1)c1cc2ccccc2o1`
# output 91.8

* * *

We begin with a simple list: items and their reported IC50.
- Tested on: HePG2, MCF-7, Hela and PC3 cell lines
- experiment-description: In vitro antitumor MTT assay, range over the four cell lines
- Assay type: cell-based
- conditions-used: Homo sapiens, read-out: IC50 range towards the four cell lines

compound="C/C(=N\\Nc1nc(-c2ccccc2)cs1)c1cc2ccccc2o1 [Compound 8]" endpoint_label=IC50 result="8.49 to 16.7 µM"
compound="COc1cccc2c1C(=O)c1c(O)c3c(c(O)c1C2=O)C[C@@](O)(C(=O)CO)C[C@@H]3O[C@H]1C[C@H](N)[C@H](O)[C@H](C)O1 [DOX, doxorubicin, reference compound]" endpoint_label=IC50 result="4.17 to 8.87 µM"
compound="CCOC(=O)Cc1csc(N/N=C(\\C)c2cc3ccccc3o2)n1 [Compound 9]" endpoint_label=IC50 result="6.55 to 13.1 µM"

# input Param readout= IC50; system= HePG2, MCF-7, Hela and PC3 cell lines; entry= C/C(=N\Nc1nc(C)cs1)c1cc2ccccc2o1 [Compound 11] ; returns value.
# output 4 to 8.99 µM
